Target: T1, His-tagged mouse CD38 (ACRO Biosystems #CD8-M5223) (mouse, UniProt P56528 45-304)
T1 construct: bought recombinant protein with His tag; also called Murine
T1 sequence (looked up): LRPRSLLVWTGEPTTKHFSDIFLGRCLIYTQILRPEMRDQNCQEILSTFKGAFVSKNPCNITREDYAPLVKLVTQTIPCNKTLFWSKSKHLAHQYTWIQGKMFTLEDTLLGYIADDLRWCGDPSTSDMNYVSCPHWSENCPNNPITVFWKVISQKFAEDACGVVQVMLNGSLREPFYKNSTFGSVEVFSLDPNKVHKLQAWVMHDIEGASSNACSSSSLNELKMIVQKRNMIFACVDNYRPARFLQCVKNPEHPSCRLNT
Assay: ELISA, coated His-CD38
attribute_measured: ELISA 1 ug/ml
Please reply with the value in numeric form only.

Entry 40566p1.B12 (scFv, V domains shown, tested as scFv-Fc supernatant) VH: DVQLVESGGGVVRPGESLRLSCAASGFTFDNYDMTWVRQAPGEGLEWVSFISSRGIFTYYADSVKGRFTISRDNSKNTLYLQMNSLRAEDTAIYYCAKDSGEYYFFDYWGLGTLVTVSS VL: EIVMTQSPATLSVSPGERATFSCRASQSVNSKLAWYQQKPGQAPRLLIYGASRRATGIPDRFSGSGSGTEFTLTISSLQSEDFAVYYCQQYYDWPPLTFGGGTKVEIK , ELISA 1 ug/ml reported as 1.62
